ASSAY_COMMENT: physchem
CONDITIONS_USED: pH 1.2 aqueous buffer, 37 °C, pH 1.2, simulated gastric fluid, thermodynamic from solid, 24 h Solubility, pH 1.2 medium, 24 h
Where a name gives a salt, the structure may show the parent alone.
ENDPOINT_LABEL: solubility at 24 h
Show the value, then the unit it is measured in.

I have this compound here, C#CCOc1ccc(/C=C/C(=O)Nc2ccccc2C(=O)O)cc1OC [Ethanolamine salt] , and I need its recorded solubility at 24 h.
3 µg/mL

* * *

ASSAY_COMMENT: physchem
CONDITIONS_USED: pH 4.5 aqueous buffer, 37 °C, thermodynamic from solid, 1 h Solubility, pH 4.5 medium, 1 h
Counter-ions that a name gives are not always drawn.
ENDPOINT_LABEL: solubility at 1 h (µg/mL)
Write the answer as a number in µg/mL, unit excluded.

I have this compound here, C#CCOc1ccc(/C=C/C(=O)Nc2ccccc2C(=O)O)cc1OC [Ethanolamine salt] , and I need its recorded solubility at 1 h.
28
